Target: IRAK4 (Homo sapiens, UniProt Q9NWZ3)
Sequence (Q9NWZ3 whole entry): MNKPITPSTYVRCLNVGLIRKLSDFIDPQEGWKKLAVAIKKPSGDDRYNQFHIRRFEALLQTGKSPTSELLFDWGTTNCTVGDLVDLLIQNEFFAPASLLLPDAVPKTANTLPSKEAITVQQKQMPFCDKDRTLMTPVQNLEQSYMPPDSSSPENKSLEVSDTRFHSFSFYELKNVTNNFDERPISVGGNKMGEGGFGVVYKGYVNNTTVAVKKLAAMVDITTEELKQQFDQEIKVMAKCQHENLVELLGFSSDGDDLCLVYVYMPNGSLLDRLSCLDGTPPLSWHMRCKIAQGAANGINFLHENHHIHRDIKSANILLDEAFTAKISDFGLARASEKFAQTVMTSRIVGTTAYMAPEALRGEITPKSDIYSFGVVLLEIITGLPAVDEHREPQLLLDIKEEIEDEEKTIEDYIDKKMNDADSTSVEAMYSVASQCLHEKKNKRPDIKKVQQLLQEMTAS
Assay: OCI-LY-10 degradation assay (western blot, % IRAK4 degraded after 4 hours)
Type: cell-based
Parameters: endogenous in cells; host or cells: OCI-LY10
Conditions: OCI-LY10 cells, 4 hours, 0.1 uM compound
Experimental: Compounds were reconstituted in DMSO to make stock solutions at concentration of 60 mM. THP-1 and OCI-LY10 cells were maintained in RPMI-1640 medium containing 10% FBS, 0.5 μM 2-ME or 20% FBS, 55 μM 2-ME, and 1% L-Glutamine respectively. […] The protein concentration of cell lysates was quantified with Pierce™ BCA Protein Assay Kit (Pierce, 23227). […] After incubation at 37° C. for 30 min, the absorbance of samples at 562 nm were measured with EnVision Plate Reader. […]

Compound	OCI-LY10 % IRAK4 Degradation (0.1 uM)
NC(=O)c1nn(-c2ccc(COCC3CN(CCOCCNc4cccc5c4C(=O)N(C4CCC(=O)NC4=O)C5=O)CCO3)cc2)cc1NC(=O)c1coc(-c2ccnc(NCC(F)(F)F)c2)n1 (stereo not drawn)	A (>50% degradation)
O=C1CCC(N2C(=O)c3ccc(OCc4cn(CCOCCOCCNCc5ccc(-n6cc(NC(=O)c7coc(-c8ccnc(NCC9CC9)c8)n7)c(C(F)F)n6)cc5)nn4)cc3C2=O)C(=O)N1 (stereo not drawn)	A (>50% degradation)

====

test: Pharmacokinetics in Sprague Dawley rats (plasma and brain concentrations, PK parameters); type: in vivo; conditions: Sprague Dawley, rat, brain, iv, 3 mg/kg, Rat (Sprague Dawley) iv 3 mg/kg (IVB); brain; 1 h; Group 1, Group 2; detected value multiplied by 3; read-out: brain Actual Conc.
Parameter measured: concentration at 1 h (ng/g)
Answer in ng/g, number only, no unit symbol.

Prompt: Using the record for O=C1CCC(N2C(=O)c3cccc(NCCOCCOCCNCc4ccc(-n5cc(NC(=O)c6coc(-c7ccnc(NCC8CC8)c7)n6)c(C(F)F)n5)cc4)c3C2=O)C(=O)N1 (stereo not shown) , state its measured concentration at 1 h.
Response: 39.9

====

assay: Pharmacokinetics in Sprague Dawley rats (plasma and brain concentrations, PK parameters); assay type: in vivo; details: Sprague-Dawley, rat, plasma, iv, 3 mg/kg, Sprague Dawley rat, iv 3 mg/kg, plasma, 0.5 h, mean of 3 rats; read-out: Concentration Mean
Parameter measured: concentration at 0.5 h
Lab note: write values as number then unit, every time.

Prompt: Using the record for O=C1CCC(N2C(=O)c3cccc(NCCOCCOCCNCc4ccc(-n5cc(NC(=O)c6coc(-c7ccnc(NCC8CC8)c7)n6)c(C(F)F)n5)cc4)c3C2=O)C(=O)N1 (stereo not shown) , state its measured concentration at 0.5 h.
Response: 304 ng/mL

====

target: UniProt:Q9NWZ3; experiment: OCI-LY-10 degradation assay (western blot, % IRAK4 degraded after 4 hours); assay type: cell-based; set-up: endogenous in cells; host or cells: OCI-LY10; settings: OCI-LY10 cells, 4 hours, 1 uM compound
Parameter measured: OCI-LY10 % IRAK4 Degradation (1 uM)

The examples below pair each entry with its known result.
Molecule	Test result
O=C1CCC(N2C(=O)c3cccc(NCCOCCN4CCO[C@H](CNC(=O)c5ccc(-n6cc(NC(=O)c7coc(-c8ccnc(NCC(F)(F)F)c8)n7)c(C(F)F)n6)cc5)C4)c3C2=O)C(=O)N1 (stereo partly drawn)	A (>50% degradation)
O=C1CCC(N2C(=O)c3cccc(CCCOCCNCc4ccc(-n5cc(NC(=O)c6coc(-c7ccnc(NCC8CC8)c7)n6)c(C(F)F)n5)cc4)c3C2=O)C(=O)N1 (stereo not drawn)	A (>50% degradation)
O=C1CCC(N2C(=O)c3cccc(NCCOCCOCCOCCOCCNC(=O)c4ccc(-n5cc(NC(=O)c6coc(-c7ccnc(NCC8CC8)c7)n6)c(C(F)F)n5)cc4)c3C2=O)C(=O)N1 (stereo not drawn)	A (>50% degradation)
O=C1CCC(n2c(=O)oc3c(CCCOCCOCCNC(=O)c4ccc(-n5cc(NC(=O)c6coc(-c7ccnc(NCC8CC8)c7)n6)c(C(F)F)n5)cc4)cccc32)C(=O)N1 (stereo not drawn)	A (>50% degradation)
O=C1CCC(N2C(=O)c3cccc(CCCN4CCC(n5cc(NC(=O)c6coc(-c7ccnc(NCC8CC8)c7)n6)c(C(F)F)n5)CC4)c3C2=O)C(=O)N1 (stereo not drawn)	C (<20% degradation)
O=C1CCC(N2C(=O)c3ccc(CCCNCc4ccc(-n5cc(NC(=O)c6coc(-c7ccncc7)n6)c(C(F)F)n5)cc4)cc3C2=O)C(=O)N1 (stereo not drawn)	C (<20% degradation)
O=C1CCC(N2C(=O)c3cccc(CCCNCCCCCNC(=O)c4ccc(-n5cc(NC(=O)c6coc(-c7ccnc(NCC8CC8)c7)n6)c(C(F)(F)F)n5)cc4)c3C2=O)C(=O)N1 (stereo not drawn)	A (>50% degradation)
O=C1CCC(N2C(=O)c3cccc(NCCOCCOCCNCc4ccc(-n5cc(NC(=O)c6coc(-c7ccnc(NCC8CC8)c7)n6)c(C(F)F)n5)cc4)c3C2=O)C(=O)N1 (stereo not drawn)	A (>50% degradation)

Prompt: Look up UniProt:Q9NWZ3 data: OCI-LY10 % IRAK4 Degradation (1 uM) of O=C1CCC(N2C(=O)c3cccc(NCCOCCN4CCO[C@H](CNC(=O)c5ccc(-n6cc(NC(=O)c7coc(-c8ccnc(NCC9CC9)c8)n7)c(C(F)F)n6)cc5)C4)c3C2=O)C(=O)N1 (stereo partly drawn) , then report it.
Response: A (>50% degradation)

Prompt: Look up UniProt:Q9NWZ3 data: OCI-LY10 % IRAK4 Degradation (1 uM) of CN(CCOCCOCCCc1cccc2c1C(=O)N(C1CCC(=O)NC1=O)C2=O)C(=O)c1ccc(-n2cc(NC(=O)c3coc(-c4ccnc(NCC5CC5)c4)n3)c(C(N)=O)n2)cc1 (stereo not drawn) , then report it.
Response: A (>50% degradation)

Prompt: Look up UniProt:Q9NWZ3 data: OCI-LY10 % IRAK4 Degradation (1 uM) of O=C1CCC(N2C(=O)c3ccc(N4CCN(CCOCCOCCOCCNC(=O)c5ccc(-n6cc(NC(=O)c7coc(-c8ccnc(NCC9CC9)c8)n7)c(C(F)F)n6)cc5)CC4)cc3C2=O)C(=O)N1 (stereo not drawn) , then report it.
Response: A (>50% degradation)

Prompt: Look up UniProt:Q9NWZ3 data: OCI-LY10 % IRAK4 Degradation (1 uM) of O=C1CCC(N2C(=O)c3ccc(N4CCN(CCOCCOCCNCc5ccc(-n6cc(NC(=O)c7coc(-c8ccnc(NCC9CC9)c8)n7)c(C(F)F)n6)cc5)CC4)cc3C2=O)C(=O)N1 (stereo not drawn) , then report it.
Response: A (>50% degradation)

Prompt: Look up UniProt:Q9NWZ3 data: OCI-LY10 % IRAK4 Degradation (1 uM) of NC(=O)c1nn(-c2ccc(C(=O)NCCOCCOCCCc3cccc4c3oc(=O)n4C3CCC(=O)NC3=O)cc2)cc1NC(=O)c1coc(-c2ccnc(NCC(F)(F)F)c2)n1 (stereo not drawn) , then report it.
Response: A (>50% degradation)

Prompt: Look up UniProt:Q9NWZ3 data: OCI-LY10 % IRAK4 Degradation (1 uM) of O=C1CCC(N2C(=O)c3ccc(NC4CCN(CCOCCOCCOCCNCc5ccc(-n6cc(NC(=O)c7coc(-c8ccnc(NCC9CC9)c8)n7)c(C(F)F)n6)cc5)CC4)cc3C2=O)C(=O)N1 (stereo not drawn) , then report it.
Response: A (>50% degradation)

Prompt: Look up UniProt:Q9NWZ3 data: OCI-LY10 % IRAK4 Degradation (1 uM) of O=C1CCC(N2C(=O)c3ccc(CCCNCc4ccc(-n5cc(NC(=O)c6coc(-c7ccnc(NCC(F)(F)F)c7)n6)c(C(F)F)n5)cc4)cc3C2=O)C(=O)N1 (stereo not drawn) , then report it.
Response: B (>20-50% degradation)
